- experimental_target: human RXFP1 (Homo sapiens)
- Sequence (Q9HBX9 whole entry): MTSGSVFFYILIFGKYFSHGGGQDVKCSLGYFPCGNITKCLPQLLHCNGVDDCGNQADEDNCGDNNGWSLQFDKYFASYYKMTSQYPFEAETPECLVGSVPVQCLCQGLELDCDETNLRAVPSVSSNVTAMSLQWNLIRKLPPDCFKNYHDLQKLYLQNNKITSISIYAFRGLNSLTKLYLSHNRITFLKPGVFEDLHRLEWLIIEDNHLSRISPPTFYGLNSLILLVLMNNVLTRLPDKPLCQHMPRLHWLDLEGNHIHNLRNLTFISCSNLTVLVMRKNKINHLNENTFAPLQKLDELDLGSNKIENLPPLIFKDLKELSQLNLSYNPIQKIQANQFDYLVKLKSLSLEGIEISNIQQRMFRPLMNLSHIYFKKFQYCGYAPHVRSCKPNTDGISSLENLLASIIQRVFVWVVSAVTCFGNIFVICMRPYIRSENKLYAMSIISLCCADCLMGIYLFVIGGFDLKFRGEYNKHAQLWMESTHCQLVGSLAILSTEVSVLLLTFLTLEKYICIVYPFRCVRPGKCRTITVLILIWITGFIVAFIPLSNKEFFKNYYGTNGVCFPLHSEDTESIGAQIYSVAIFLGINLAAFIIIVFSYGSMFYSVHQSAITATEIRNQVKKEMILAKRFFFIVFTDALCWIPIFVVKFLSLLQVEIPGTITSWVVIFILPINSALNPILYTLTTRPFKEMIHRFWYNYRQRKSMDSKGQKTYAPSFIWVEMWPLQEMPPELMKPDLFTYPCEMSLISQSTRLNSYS
- method_notes: RXFP1 Hu cAMP (Test A)
- Assay type: cell-based
- Set-up: expressed in transfected cells; host or cells: Jump-In T-REx CHO-K1 cells (ThermoFisher), induced with 10 ng/ml doxycycline for 24 h
- settings: RXFP1 Hu cAMP; read-out: Test A EC50
pEC50: −log10 of the molar value.
value_type: pEC50

COc1cc(F)c(-c2ccc(CCC(=O)O)cc2)cc1C(=O)N[C@@H]1CCC[C@@H]1C(=O)Nc1cccc(S(=O)(=O)C(F)(F)F)c1 [Example 321]
6.47

I. CC1(CNC(=O)[C@H]2[C@@H]3CC[C@@H](C3)[C@H]2NC(=O)c2cc(O[C@H]3CC[C@@](C)(C(=O)O)CC3)cc3cccnc23)CCC1 [Example 407]
II. COc1cc(F)c(-c2ccc([C@@H](C(=O)O)N(C)C)cc2)cc1C(=O)N[C@@H]1[C@H]2CC[C@H](C2)[C@@H]1C(=O)Nc1cccc(S(=O)(=O)C(F)(F)F)c1 (racemic) [Example 295]
IN: Hey, between I and II which has a smaller measured pEC50? # answer = label of selected item
OUT: II
(II: 6.30, I: 6.59)
